Each entry below carries its recorded IC50.
- experimental-system: NGF (nerve growth factor) (Homo sapiens, UniProt P01138 P01138:122-241)
- Sequence (P01138 122-241, one chain of several): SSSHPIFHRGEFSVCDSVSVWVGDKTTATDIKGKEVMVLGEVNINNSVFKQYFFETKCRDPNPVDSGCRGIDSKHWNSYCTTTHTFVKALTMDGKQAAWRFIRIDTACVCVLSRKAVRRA
- protocol-summary: cell_activity; neurite outgrowth inhibition
- settings: tags: R&D Systems; chain copies: 2
- Experimental: The cells (2500 cells per well) were cultured for one day in an RPMI-1640 medium containing 2.5% horse serum and 1.25% fetal bovine serum in a 96 well flat-bottom plate coated with collagen type IV. […] Two days later, the cytoplasm and nuclei were stained using Cellomics Neurite Outgrowth Kit (manufactured by Thermo Scientific), and neurite length per cell was measured by Cellomics ArrayScan VTI (manufactured by Thermo Scientific). […]
Report as a plain number; the unit pM is understood.

// below: answered binders
* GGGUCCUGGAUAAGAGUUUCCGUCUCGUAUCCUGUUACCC (ssRNA, 2'-F all C and U; 2'-OMe G1-3,G9,G14,G16,G22,G27; 2'-OH G8,G34; 2'-H A; 5' PEG40GS2; 3' idT) [SEQ ID NO: 82(56)] | 67
* GGGUCCUGGAUAAGAGTUUCCGUCUCGUAUCCUGUUACCC (ssRNA, 2'-F C5,U7,U18,U19,C20,C24,U25,U33,U36; dT17; 2'-OH G8,G34; 2'-H A; 2'-OMe all other; idT 5' and 3') [SEQ ID NO: 160] | 38

Continue with the binder presented below.
So for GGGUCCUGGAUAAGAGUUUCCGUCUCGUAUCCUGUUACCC (ssRNA, 2'-F all C and U; 2'-OMe G1-3,G9,G14,G16,G22,G27; 2'-OH G8,G34; 2'-H A; idT 5' and 3') [SEQ ID NO: 82(1)] , the logged IC50 turned out to be 700

Where do these numbers come from? They come from patent US20140235701.
